# Subject of test: Prostaglandin G/H synthase 1 (Ovis aries)
# Sequence (P05979 whole entry): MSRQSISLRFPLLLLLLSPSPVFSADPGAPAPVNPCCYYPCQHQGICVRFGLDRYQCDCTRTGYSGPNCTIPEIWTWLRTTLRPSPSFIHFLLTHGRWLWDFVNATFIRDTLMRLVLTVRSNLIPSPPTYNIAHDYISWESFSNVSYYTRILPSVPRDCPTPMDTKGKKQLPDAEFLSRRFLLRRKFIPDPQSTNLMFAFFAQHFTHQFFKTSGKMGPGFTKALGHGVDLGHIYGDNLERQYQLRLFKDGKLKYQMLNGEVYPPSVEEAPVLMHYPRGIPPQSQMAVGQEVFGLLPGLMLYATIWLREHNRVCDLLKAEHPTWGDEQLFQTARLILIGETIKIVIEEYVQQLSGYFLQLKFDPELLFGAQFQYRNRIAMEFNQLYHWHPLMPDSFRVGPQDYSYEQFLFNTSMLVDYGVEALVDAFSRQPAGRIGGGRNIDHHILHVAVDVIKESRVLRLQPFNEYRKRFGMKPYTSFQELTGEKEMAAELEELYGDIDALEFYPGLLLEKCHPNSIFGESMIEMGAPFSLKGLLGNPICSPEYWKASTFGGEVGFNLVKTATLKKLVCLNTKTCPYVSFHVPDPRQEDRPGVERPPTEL
This section presents IC50 values reported for Prostaglandin G/H synthase 1 (Ovis aries) in the literature.

Previously resolved entries follow.
>>> df
                                  structure  value_measured
0  COc1ccc(-n2nc(C(=O)Nc3ccc(Br)cc3)nc2-c2cc(OC)c(OC)c(OC)c2)cc1        > 100 µM
1  O=C(O)c1ccccc1Nc1nc(Cl)nc(Nc2ccc(N3CCOCC3=O)cc2)n1         > 10 µM
2  CS(=O)(=O)c1ccc(C(=O)/C=C/c2c[nH]c3ccc(Br)cc23)cc1       > 24.7 µM
3  CS(=O)(=O)c1ccc(C=C(c2ccc(F)cc2)c2ccc(F)cc2)cc1        > 100 µM

Consider the record given below.
Requested read-out: IC50. Entry: CS(=O)(=O)c1ccc(C2=C(c3ccc(S(=O)(=O)N=[N+]=[N-])cc3)COC2=O)cc1
> 100 µM

====

# Subject of test: Prostaglandin G/H synthase 1 (Ovis aries, UniProt P05979)
# Sequence (P05979 whole entry): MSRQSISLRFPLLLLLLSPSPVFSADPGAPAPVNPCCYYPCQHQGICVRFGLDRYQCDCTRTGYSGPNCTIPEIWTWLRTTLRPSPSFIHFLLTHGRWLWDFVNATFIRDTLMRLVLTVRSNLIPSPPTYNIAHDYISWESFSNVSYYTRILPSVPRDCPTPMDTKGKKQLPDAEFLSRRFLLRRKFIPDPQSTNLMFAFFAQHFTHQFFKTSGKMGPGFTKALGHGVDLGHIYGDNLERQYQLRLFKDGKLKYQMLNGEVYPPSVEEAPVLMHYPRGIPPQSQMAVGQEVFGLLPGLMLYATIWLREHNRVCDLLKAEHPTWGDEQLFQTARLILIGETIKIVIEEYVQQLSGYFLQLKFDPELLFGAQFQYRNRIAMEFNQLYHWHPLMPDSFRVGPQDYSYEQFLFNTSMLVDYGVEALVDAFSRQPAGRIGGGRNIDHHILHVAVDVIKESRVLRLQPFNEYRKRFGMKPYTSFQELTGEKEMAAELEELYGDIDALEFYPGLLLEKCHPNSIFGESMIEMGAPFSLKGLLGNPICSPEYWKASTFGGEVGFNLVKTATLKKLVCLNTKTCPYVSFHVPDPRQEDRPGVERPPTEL
pIC50: −log10 of the molar value.
We begin with pIC50 values for Prostaglandin G/H synthase 1 (Ovis aries, UniProt P05979), as collected from the published literature.

For orientation, consider the following solved cases.
In [3]: df
Out[3]:
                                   molecule  value_measured
0  Cc1cn(-c2ccc(S(C)(=O)=O)cc2)c(-c2ccc(Cl)cc2)n1          < 4.00
1  CCCSc1cc(-c2ccccc2)c(-c2ccc(S(C)(=O)=O)cc2)c(=O)o1          < 4.00
2  CS(=O)(=O)c1ccc(-c2cc(-c3ccccc3)oc(=O)c2-c2ccncc2)cc1          < 4.00
3  CCc1ccc(-c2ccc(C(=O)N3CCc4c(c5ccccc5n4CC(=O)O)C3)cc2)cc1          < 5.00
4           CCCCCCCS(=O)(=O)c1ccccc1OC(C)=O          < 4.40
5  CS(=O)(=O)c1ccc(-n2nc(C(F)(F)F)cc2-c2cccc(I)c2)cc1          < 5.40
6  NS(=O)(=O)c1ccc(N2N=C(C(F)(F)F)CC2c2c[nH]c3cc([N+](=O)[O-])ccc23)cc1 (centres undefined)          < 4.00
7  COc1ccc2c(c1)c(CC(=O)N(C)C)c(C)n2C(=O)c1ccc(Cl)cc1          < 4.18

What measured pIC50 goes with COc1ccc2c(c1)c(CC(=O)OCCNC(=O)OC(C)(C)C)c(C)n2C(=O)c1ccc(Cl)cc1 ?
< 4.18

====

pIC50: −log10 of the molar value.
Please find below pIC50 data on Prostaglandin G/H synthase 1 (Ovis aries, UniProt P05979) compiled from the literature.

>>> print(df.to_string())
                                  structure  value_measured
0  C/C(=N\Nc1nc(-c2ccc(Cl)cc2)cs1)c1nnn(-c2ccc(S(=O)(=O)Nc3nccs3)cc2)c1C            4.85
1  Cc1ccc(-c2c(Cl)c(CCl)nn2-c2ccc(S(N)(=O)=O)cc2)cc1          < 4.00
2  CS(=O)(=O)c1ccc(-c2c(-c3ccc(F)cc3)noc2C(F)(F)F)cc1          < 4.00

Please find the next molecule below.
Which pIC50 is reported with Prostaglandin G/H synthase 1 (Ovis aries, UniProt P05979) for this entry: COC[C@H](C)NC(=O)Cc1c(C)n(C(=O)c2ccc(Cl)cc2)c2ccc(OC)cc12 ?
< 4.22

====

# Subject of test: Prostaglandin G/H synthase 1 (Ovis aries, UniProt P05979)
# Sequence (P05979 whole entry): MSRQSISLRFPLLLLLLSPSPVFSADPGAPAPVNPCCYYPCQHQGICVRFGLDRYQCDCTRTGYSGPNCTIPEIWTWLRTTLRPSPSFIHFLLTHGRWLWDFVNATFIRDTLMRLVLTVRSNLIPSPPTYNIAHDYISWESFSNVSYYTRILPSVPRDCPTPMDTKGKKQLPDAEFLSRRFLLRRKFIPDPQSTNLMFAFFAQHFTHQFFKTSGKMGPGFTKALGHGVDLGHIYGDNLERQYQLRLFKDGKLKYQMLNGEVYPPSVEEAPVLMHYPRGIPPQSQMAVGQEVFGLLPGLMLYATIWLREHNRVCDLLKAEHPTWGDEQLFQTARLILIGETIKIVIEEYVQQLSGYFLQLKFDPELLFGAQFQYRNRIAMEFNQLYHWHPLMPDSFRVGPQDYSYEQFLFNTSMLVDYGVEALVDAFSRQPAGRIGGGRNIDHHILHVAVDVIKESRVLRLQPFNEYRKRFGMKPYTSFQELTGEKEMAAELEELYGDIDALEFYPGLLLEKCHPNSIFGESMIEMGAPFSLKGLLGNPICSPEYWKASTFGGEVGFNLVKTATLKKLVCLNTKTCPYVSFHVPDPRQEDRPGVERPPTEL
Literature roundup of Prostaglandin G/H synthase 1 (Ovis aries, UniProt P05979) data, read-out IC50.

>>> print(df.to_string())
                                  structure                           subject_of_test  value_measured
0  FC(F)(F)c1nn(-c2ccccc2)c(-c2ccc(Cl)cc2)c1/C=N/c1ccccc1Cl  Prostaglandin G/H synthase 1 (Ovis aries, UniProt P05979)         > 50 µM
1  N=c1cc(Nc2ccc(S(N)(=O)=O)cc2)n2[nH]c(=S)sc2n1  Prostaglandin G/H synthase 1 (Ovis aries, UniProt P05979)         > 50 µM
2     O=C(O)Cc1cccc(-c2ccn(C(F)F)c(=O)c2)c1  Prostaglandin G/H synthase 1 (Ovis aries, UniProt P05979)        > 100 µM

We next turn to a different compound, shown below.
Please report the recorded IC50 for COc1ccc2c(c1)c(CC(=O)O)c(C)n2C(=O)c1ccn(C(F)F)c(=O)c1 .
> 100 µM

====

# Subject of test: Prostaglandin G/H synthase 1 (Ovis aries, UniProt P05979)
# Sequence (P05979 whole entry): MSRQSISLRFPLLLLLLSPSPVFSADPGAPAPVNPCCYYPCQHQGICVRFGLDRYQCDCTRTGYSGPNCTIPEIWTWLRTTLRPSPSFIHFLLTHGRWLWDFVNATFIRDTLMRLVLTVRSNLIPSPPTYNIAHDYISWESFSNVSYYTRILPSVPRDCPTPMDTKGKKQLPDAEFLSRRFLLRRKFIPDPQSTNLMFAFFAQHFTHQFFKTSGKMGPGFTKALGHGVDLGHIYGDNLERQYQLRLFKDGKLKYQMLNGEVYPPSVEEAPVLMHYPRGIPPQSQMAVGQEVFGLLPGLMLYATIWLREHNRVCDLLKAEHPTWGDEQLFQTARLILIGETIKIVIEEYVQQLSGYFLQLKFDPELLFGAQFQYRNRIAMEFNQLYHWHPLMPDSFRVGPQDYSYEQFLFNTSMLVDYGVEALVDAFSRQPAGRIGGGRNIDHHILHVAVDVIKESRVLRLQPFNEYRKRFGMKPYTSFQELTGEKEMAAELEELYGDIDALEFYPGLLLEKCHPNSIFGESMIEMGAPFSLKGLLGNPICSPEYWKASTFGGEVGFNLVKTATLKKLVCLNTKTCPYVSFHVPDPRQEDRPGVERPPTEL
pIC50: −log10 of the molar value.
Please find below pIC50 data on Prostaglandin G/H synthase 1 (Ovis aries, UniProt P05979) compiled from the literature.

Worked examples, 3 molecules total:
>>> print(df.to_string())
                                   molecule  metric_name  value_measured
0  COc1ccc2c(c1)c(CC(=O)O)c(C)n2Cc1ccc(=O)n(C(F)F)c1        pIC50          < 4.00
1  CC(=O)Oc1ccccc1C(=O)OCO/N=[N+](\[O-])N1CCCC1        pIC50          < 4.00
2  C#Cc1cccc(Nc2ncnc3cc(OCCOC(=O)C(C)c4ccc5cc(OC)ccc5c4)c(OCCOC(=O)C(C)c4ccc5cc(OC)ccc5c4)cc23)c1 (centres undefined)        pIC50          < 5.00

pIC50 of CCCCCCC(Sc1nc(Cl)cc(Nc2ccc(-c3ccccc3)cc2)n1)C(=O)O (centres undefined) on Prostaglandin G/H synthase 1 (Ovis aries, UniProt P05979)?
< 5.00
